Some compounds, each annotated with its measured IC50.
tested on: HCT116 MTAP null cells; assay: HCT116 MTAP null cell line proliferation (CellTiter-Glo cell viability, 6 days); format: cell-based; settings: HCT116-MTAP null, 144 h, HCT116 MTAP null cells, 6 days of treatment, CellTiter-Glo cell viability; read-out: HCT-116 MTAP null IC50
Reply numerically in nM, unit not repeated.

- compound: "C[C@@H]1COC[C@H](c2ccc(OC(F)F)nn2)N1C(=O)c1cc2c(cc1F)nc(N)c1cnn(C)c12"
  IC50 [nM]: 6
- compound: "Nc1nc2cc(F)c(C(=O)N3CC[C@H](c4ccc(C(F)(F)F)cc4)C3)cc2c2c1COC2 (single isomer, unassigned)"
  IC50 [nM]: 417
- compound: "Nc1nc2ccc(C(=O)N3CCOC[C@@H]3c3ccc(CC(F)(F)F)cc3)cc2c2c1COC2 (single isomer, unassigned)"
  IC50 [nM]: 420
- compound: "Nc1nc2cc(F)c(C(=O)N3CCOC[C@@H]3c3ccc(C(F)(F)F)cc3)cc2c2c1COC2"
  IC50 [nM]: 29
- compound: "COc1ccc(C2COCCN2C(=O)c2ccc3nc(N)c4c(c3c2)COC4)cc1 (racemic)"
  IC50 [nM]: 1560

// query IC50 value for entry Nc1nc2cc(F)c(C(=O)N3CCOC[C@@H]3c3ccc(C(F)(F)F)cc3)cc2c2c1CCO2 416

Cool, now Nc1nc2ccc(C(=O)N3CCOC[C@@H]3c3ccc(C(F)(F)F)cc3)cc2n2ccnc12 765

Cool, now Cn1ncc2c(N)nc3ccc(C(=O)N4CCOC[C@@H]4c4ccc(C(F)(F)F)cc4)cc3c21 30

Cool, now Nc1nc2ccc(C(=O)N3CCOCC3c3ccc(F)c(OC(F)(F)F)c3)cc2c2c1COC2 (racemic) 871

Cool, now C[C@H]1OCc2c1c(N)nc1cnc(C(=O)N3CCOC[C@@H]3c3ccc(C(F)(F)F)cc3)cc21 (racemic) [Example 338] 100

---

tested on: HCT116 MTAP null cells; assay: HCT116 MTAP null cell line proliferation (CellTiter-Glo cell viability, 6 days); format: cell-based; details: HCT116-MTAP null, 144 h, HCT116 MTAP null cells, 6 days of treatment, CellTiter-Glo cell viability; read-out: HCT-116 MTAP null IC50
measured.endpoint: IC50 (nM)
Reply numerically in nM, unit not repeated.

- molecule: "Cn1ncc2c3cc(C(=O)N4CCOC[C@@H]4c4ccc(C(F)(F)F)cc4)c(F)cc3nc(N)c21"
  unit.descriptor: "nM"
  IC50: 86
- molecule: "CCOc1ccc([C@@H]2COC[C@H](C)N2C(=O)c2ccc3nc(N)c4c(c3c2)COC4)nn1 (racemic)"
  unit.descriptor: "nM"
  IC50: 145
- molecule: "Nc1nc2ncc(C(=O)N3CCOC[C@@H]3c3ccc(OC(F)(F)F)cc3)cc2c2c1COC2"
  unit.descriptor: "nM"
  IC50: 843
- molecule: "Nc1nc2cnc(C(=O)N3CCOC[C@H]3c3ccc(S(F)(F)(F)(F)F)cc3)cc2c2c1COC2 (single isomer, unassigned)"
  unit.descriptor: "nM"
  IC50: 8710
- molecule: "C[C@H]1COC[C@@H](c2ccc(OC(F)(F)F)cn2)N1C(=O)c1ccc2nc(N)c3c(c2c1)COC3 (racemic)"
  unit.descriptor: "nM"
  IC50: 29
- molecule: "C[C@H]1COC[C@@H](c2ccc(OC(F)F)nn2)N1C(=O)c1cc2c3c(c(N)nc2cc1F)COC3 (racemic)"
  unit.descriptor: "nM"
  IC50: 15

// query IC50 value for entry Cc1ccc([C@@H]2CN(C(=O)c3cc4c5c(c(N)nc4cc3F)COC5)CC2(C)C)cc1 (single isomer, unassigned) 195

Cool, now C[C@@H]1COC[C@H](c2ccc(OC(F)(F)F)cc2)N1C(=O)c1ccc2nc(N)c3c(cnn3C)c2c1 44

---

test system: HCT116 MTAP null cells; test: HCT116 MTAP null cell line proliferation (CellTiter-Glo cell viability, 6 days); assay type: cell-based; conditions: HCT116-MTAP null, 144 h, HCT116 MTAP null cells, 6 days of treatment, CellTiter-Glo cell viability; read-out: HCT-116 MTAP null IC50
measured.endpoint: IC50

Please review the entries below; each comes with its answer.
- compound: "Nc1nc2ccc(C(=O)N3CCOCC3c3ccc(Br)nn3)cc2c2c1COC2 (racemic) [Example 500]"
  measured.endpoint: "IC50"
  endpoint.value: "> 1 µM"
- compound: "Nc1nc2ncc(C(=O)N3CCOCC3c3ccc(C(F)(F)F)cc3)cc2c2c1COC2 (racemic) [Example 483]"
  measured.endpoint: "IC50"
  endpoint.value: "> 1 µM"

Now for a further compound.
// query IC50 value for entry Cc1ccc([C@@H]2COCCN2C(=O)c2cc3c4c(c(N)nc3cn2)COC4)cn1 (single isomer, unassigned) [Example 608] > 1 µM

---

system: HCT116 MTAP null cells; experiment: HCT116 MTAP null cell line proliferation (CellTiter-Glo cell viability, 6 days); format: cell-based; conditions: HCT116-MTAP null, 144 h, HCT116 MTAP null cells, 6 days of treatment, CellTiter-Glo cell viability; read-out: HCT-116 MTAP null IC50
pIC50: −log10 of the molar value.
Returns: string. Value is 1.0 if measured pIC50 is below 7, and 0.0 if it is greater than or equal to it.

- compound: "C[C@@H]1COC[C@H](c2ccc(C(F)(F)F)cc2)N1C(=O)c1ccc2nc(N)c3c(cnn3C)c2c1 [Example 533]"
  subject.of.test: "HCT116 MTAP null cells"
  label: 0.0

Hi there! Is pIC50 for Nc1nc2cc(F)c(C(=O)N3CCOC[C@@H]3c3ncc(Br)cc3F)cc2c2c1COC2 (single isomer, unassigned) [Example 460] below 7, do you know? 0.0

Cool, now C[C@H]1COC[C@@H](c2ccc(C(F)(F)F)cn2)N1C(=O)c1cc2c3c(c(N)nc2cc1Cl)COC3 (racemic) [Example 301] 0.0

Cool, now C[C@H]1COC[C@@H](c2ccc(OC(F)(F)F)cc2F)N1C(=O)c1cc2c3c(c(N)nc2cn1)COC3 (racemic) [Example 328] 0.0

Cool, now C[C@H]1OCc2c1c(N)nc1ccc(C(=O)N3C[C@@H](c4ccccc4)[C@H](c4ccccc4)C3)cc21 (racemic) [Example 431] 1.0

Cool, now Nc1nc2ccc(C(=O)N3CCOCC3c3ccc(CC(F)(F)F)cc3)cc2c2c1COC2 (racemic) [Example 508] 1.0

Cool, now Nc1nc2ccc(C(=O)N3CCOC[C@H]3c3ccc(Br)cn3)cc2c2c1COC2 (single isomer, unassigned) [Example 572] 1.0

Cool, now Cc1ccccc1C1COCCN1C(=O)c1ccc2nc(N)c3c(c2c1)COC3 (racemic) [Example 362] 1.0

Cool, now C[C@H]1COC[C@@H](c2ccc(Cl)nc2)N1C(=O)c1cc2c3c(c(N)nc2cc1F)COC3 (racemic) [Example 313] 0.0

---

test system: HCT116 MTAP null cells; experiment: HCT116 MTAP null cell line proliferation (CellTiter-Glo cell viability, 6 days); type: cell-based; conditions: HCT116-MTAP null, 144 h, HCT116 MTAP null cells, 6 days of treatment, CellTiter-Glo cell viability; read-out: HCT-116 MTAP null IC50
Some compounds, each annotated with its measured IC50.

// query IC50 value for entry Nc1nc2cnc(C(=O)N3CCOC[C@H]3c3ccc(C(F)(F)F)cc3)cc2c2c1COC2 (single isomer, unassigned) > 1 µM

Cool, now Nc1nc2cnc(C(=O)N3CCOC[C@@H]3c3cnc(C(F)(F)F)nc3)cc2c2c1COC2 (single isomer, unassigned) > 1 µM

Cool, now Nc1nc2cnc(C(=O)N3CCC(F)(F)C[C@H]3c3ccc(C(F)(F)F)cc3)cc2c2c1COC2 (single isomer, unassigned) > 10 µM

Cool, now Nc1nc2ccc(C(=O)N3CCCC[C@H]3c3ccc(C(F)(F)F)cc3)cc2c2ccsc12 (single isomer, unassigned) > 1 µM

---

tested on: HCT116 MTAP null cells; test: HCT116 MTAP null cell line proliferation (CellTiter-Glo cell viability, 6 days); type: cell-based; conditions: HCT116-MTAP null, 144 h, HCT116 MTAP null cells, 6 days of treatment, CellTiter-Glo cell viability; read-out: HCT-116 MTAP null IC50
measured.endpoint: IC50

Please review the entries below; each comes with its answer.
- molecule: "C[C@@H]1CN(C(=O)c2ccc3nc(N)c4c(c3c2)COC4)[C@@H](c2ccc(OC(F)(F)F)cc2)CO1 (single isomer, unassigned)"
  IC50: "> 1000 nM"
- molecule: "C[C@@H]1OCc2c1c(N)nc1ccc(C(=O)N3CCOC[C@@H]3c3ccc(OC(F)(F)F)cc3)cc21 (single isomer, unassigned)"
  IC50: "> 1000 nM"

Now for a further molecule.
// query IC50 value for entry Nc1nc2cnc(C(=O)N3CCCC[C@H]3c3ccc(C(F)(F)F)cc3)cc2c2c1COC2 (single isomer, unassigned) > 1000 nM

Data origin, for the record: patent US11845760B2
